- measurement target: CCXCKR2 receptor (Homo sapiens)
- Construct: expressed in transfected cells; host or cells: MDA-MB-435S transfected with pcDNA3.1(+)-hRDC1 and/or MCF-7 (endogenous receptor)
- assay comment: Displacement of 125I-labeled SDF-1 from the CCXCKR2 receptor on MCF-7 and/or CCXCKR2-transfected MDA-MB-435S cells (radioligand binding, filtration)
- test settings: 125I SDF-1, 3 hr at 4° C., MCF-7 and/or MDA-MB-435S cells; read-out: Activity (concentration displacing at least 50% of the SDF-1 from the CCXCKR2 receptor)
pIC50: −log10 of the molar value.
pIC50: recorded values

| compound | pIC50 |
| --- | --- |
| Cc1ccc(C(=O)c2cn(Cc3ccccc3-c3cncnc3)c3ccccc3c2=O)cc1C | 4.70 to 6.30 |
| CNc1cccc(Cn2cc(C(=O)c3cnc(C)c(C)c3)c(=O)c3ccccc32)n1 | 6.30 to 7.00 |
| CNCc1cccc(Cn2cc(C(=O)c3ccc(C)c(C)c3)c(=O)c3ccccc32)n1 | 4.70 to 6.30 |
| Cc1ccc(C(=O)c2cn(Cc3cccc(Br)n3)c3cc(F)c(F)cc3c2=O)cc1C | > 7.00 |
| Cc1ccc(C(=O)c2cn(Cc3cccc(C4CC4)n3)c3ccccc3c2=O)cc1C | > 7.00 |
| O=C(c1ccncc1)c1cn(Cc2ccccn2)c2ccccc2c1=O | 4.70 to 6.30 |
| Cc1ncccc1C(=O)c1cn(Cc2cccc(Br)n2)c2ccccc2c1=O | 6.30 to 7.00 |
| COc1ccc(C(=O)c2cn(Cc3cccc(Br)n3)c3ccccc3c2=O)nc1C | > 7.00 |
| Cc1ccc(C(=O)c2cn(Cc3cccc(C(F)(F)F)n3)c3ccccc3c2=O)cc1C | > 7.00 |
| COc1ccc(C(=O)c2cn(Cc3cccc(Br)c3)c3ccc(C)nc3c2=O)cc1F | 4.70 to 6.30 |
| COc1ccc(C(=O)c2cn(Cc3cccc(C)n3)c3ccccc3c2=O)cc1C | > 7.00 |
| Cc1cccc(Cn2cc(C(=O)c3cccnc3)c(=O)c3ccccc32)c1 | 4.70 to 6.30 |
| O=C(c1ccc(O)nc1)c1cn(Cc2cccc(Br)n2)c2ccccc2c1=O | 4.70 to 6.30 |
| Cc1ccc2c(=O)c(C(=O)c3ccc(C)c(C)c3)cn(Cc3cccc(Br)n3)c2n1 | > 7.00 |
| CSc1ccc(C(=O)c2cn(Cc3cccc(Br)n3)c3ccccc3c2=O)cc1 | > 7.00 |
| Cc1ccc(C(=O)c2cn(C(C)c3cccc(Br)n3)c3ccccc3c2=O)nc1C (stereo not shown) | > 7.00 |
| COc1ccc(C(=O)c2cn(Cc3cccc(Br)n3)c3ccccc3c2=O)cc1 | > 7.00 |
| CC(C)(C)c1ccc(C(=O)c2cn(Cc3cccc(Br)n3)c3ccccc3c2=O)cc1 | > 7.00 |
| Cc1ccc(C(=O)c2cn(Cc3cccc(N(C)C)n3)c3ccccc3c2=O)cc1C | 4.70 to 6.30 |
| Cc1ccc(C(=O)c2cn(Cc3cccc(N)n3)c3ccccc3c2=O)nc1C | > 7.00 |
| Cc1ccc2c(=O)c(C(=O)c3ccc4c(c3)OCCO4)cn(Cc3cccc(Br)n3)c2n1 | > 7.00 |
| COc1ccc(C(=O)c2cn(Cc3cccc(C(F)(F)F)n3)c3ccccc3c2=O)cc1C | > 7.00 |
| CCN(CC)c1ccc(C(=O)c2cn(Cc3cccc(Br)c3)c3ccccc3c2=O)cn1 | > 7.00 |
| Cc1cccc(Cn2cc(C(=O)c3ccc(N(C)C)cc3)c(=O)c3ccccc32)n1 | > 7.00 |
| Cc1ccc(C(=O)c2cn(Cc3ccccc3F)c3ccccc3c2=O)nc1C | > 7.00 |
| Cc1cccc(Cn2cc(C(=O)c3ccc(C)c(C)c3)c(=O)c3ccc(C)nc32)n1 | > 7.00 |
| COc1ccc(C(=O)c2cn(Cc3cccc(Br)n3)c3ccccc3c2=O)cc1OC | > 7.00 |
| CCOc1ccc(C(=O)c2cn(Cc3cccc(Br)n3)c3ccccc3c2=O)cc1C | > 7.00 |
| O=C(c1ccccc1C1OCCCO1)c1cn(Cc2cccc(Br)n2)c2ccccc2c1=O | > 7.00 |
| N#Cc1cccc(Cn2cc(C(=O)c3ccc4c(c3)OCCO4)c(=O)c3ccccc32)n1 | > 7.00 |
| Cc1ccc(C(=O)c2cn(Cc3ccccc3F)c3ccncc3c2=O)cc1C | 4.70 to 6.30 |
| COCCOc1ccc(C(=O)c2cn(Cc3cccc(Br)n3)c3ccccc3c2=O)cc1C | 6.30 to 7.00 |
| CN(C)c1ccc(C(=O)c2cn(Cc3cccc(Cl)c3)c3ccccc3c2=O)cn1 | > 7.00 |
| O=C(c1ccccc1-c1cnco1)c1cn(Cc2cccc(Br)n2)c2ccccc2c1=O | 4.70 to 6.30 |

====

- measurement target: CCXCKR2 receptor (Homo sapiens, UniProt P25106)
- Construct: expressed in transfected cells; host or cells: MDA-MB-435S transfected with pcDNA3.1(+)-hRDC1 and/or MCF-7 (endogenous receptor)
- Sequence (P25106 whole entry): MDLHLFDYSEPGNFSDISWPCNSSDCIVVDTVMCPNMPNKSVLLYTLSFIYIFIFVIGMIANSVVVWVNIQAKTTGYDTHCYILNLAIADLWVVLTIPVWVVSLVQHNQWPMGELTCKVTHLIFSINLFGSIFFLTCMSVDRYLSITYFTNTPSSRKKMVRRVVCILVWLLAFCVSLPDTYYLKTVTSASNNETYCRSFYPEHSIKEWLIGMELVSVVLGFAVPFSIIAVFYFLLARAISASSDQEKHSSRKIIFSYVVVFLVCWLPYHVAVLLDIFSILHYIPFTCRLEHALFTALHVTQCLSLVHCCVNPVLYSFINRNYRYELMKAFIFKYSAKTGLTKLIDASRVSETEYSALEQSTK
- assay comment: Displacement of 125I-labeled SDF-1 from the CCXCKR2 receptor on MCF-7 and/or CCXCKR2-transfected MDA-MB-435S cells (radioligand binding, filtration)
- test settings: 125I SDF-1, 3 hr at 4° C., MCF-7 and/or MDA-MB-435S cells; read-out: Activity (concentration displacing at least 50% of the SDF-1 from the CCXCKR2 receptor)
pIC50: −log10 of the molar value.
Recorded pIC50, one value per entry.
recorded metric: pIC50

| structure smiles | value |
| --- | --- |
| COc1ccc(C(=O)c2cn(Cc3cccc(Cl)c3)c3ccccc3c2=O)cn1 | > 7.00 |
| Cc1ccc(C(=O)c2cn(-c3ccccc3)c3ccccc3c2=O)cc1C | 4.70 to 6.30 |
| Cc1cccc(Cn2cc(C(=O)c3ccc(C)c(C)c3)c(=O)c3nc(C)ccc32)n1 | > 7.00 |
| Cc1cccc(Cn2cc(C(=O)c3cnc(C)c(C)c3)c(=O)c3ccccc32)n1 | > 7.00 |
| Cc1ccc(C(=O)c2cn(Cc3cccc(Br)n3)c3nc(C)c(C)cc3c2=O)cc1C | > 7.00 |
| Cc1ccc(C(=O)c2cn(Cc3ncon3)c3ccccc3c2=O)cc1C | > 7.00 |
| Nc1ccc(C(=O)c2cn(Cc3cccc(Br)n3)c3ccccc3c2=O)cn1 | 4.70 to 6.30 |
| CCc1ccc(C(=O)c2cn(Cc3cccc(Br)n3)c3ccccc3c2=O)cn1 | > 7.00 |
| Cc1ccc(C(=O)c2cn(Cc3ccccn3)c3cc4c(cc3c2=O)OCO4)cc1C | 6.30 to 7.00 |
| COc1ccc(C(=O)c2cn(Cc3cccc(C)n3)c3cccnc3c2=O)cc1C | 4.70 to 6.30 |
| Cc1cccc(Cn2cc(C(=O)c3cnccn3)c(=O)c3ccccc32)n1 | 4.70 to 6.30 |
| Cc1cc(C(=O)c2cn(Cc3cccc(N)n3)c3ccccc3c2=O)cnc1C | > 7.00 |
| O=C(c1ccc(C(F)(F)F)nc1)c1cn(Cc2cccc(Br)c2)c2ccccc2c1=O | 4.70 to 6.30 |
| Cc1cccc(Cn2cc(C(=O)c3ccccc3Br)c(=O)c3ccccc32)n1 | > 7.00 |
| O=C(c1cccc(C2OCCCO2)c1)c1cn(Cc2cccc(Br)n2)c2ccccc2c1=O | 4.70 to 6.30 |
| Cc1cccc(Cn2cc(C(=O)c3ccccc3)c(=O)c3ccccc32)c1 | 6.30 to 7.00 |
| Cc1cc(C(=O)c2cn(Cc3ccccc3F)c3ccccc3c2=O)cnc1C | > 7.00 |
| Cc1cc(C(=O)c2cn(Cc3cccc(C(F)(F)F)n3)c3ccccc3c2=O)cnc1C | > 7.00 |

====

- measurement target: CCXCKR2 receptor (Homo sapiens)
- Construct: expressed in transfected cells; host or cells: MDA-MB-435S transfected with pcDNA3.1(+)-hRDC1 and/or MCF-7 (endogenous receptor)
- assay comment: Displacement of 125I-labeled SDF-1 from the CCXCKR2 receptor on MCF-7 and/or CCXCKR2-transfected MDA-MB-435S cells (radioligand binding, filtration)
- test settings: 125I SDF-1, 3 hr at 4° C., MCF-7 and/or MDA-MB-435S cells; read-out: Activity (concentration displacing at least 50% of the SDF-1 from the CCXCKR2 receptor)
pIC50: −log10 of the molar value.
Recorded pIC50 values for a group of molecules are listed next.

| molecule | measurement target | pIC50 |
| --- | --- | --- |
| O=C(c1ccc2c(c1)OCCO2)c1cn(Cc2cccc(Br)n2)c2ncccc2c1=O [Example 175] | CCXCKR2 receptor (Homo sapiens) | > 7.00 |
| COc1ccc(C(=O)c2cn(Cc3cccc(Br)n3)c3nc(C)ccc3c2=O)cc1C [Example 143] | CCXCKR2 receptor (Homo sapiens) | > 7.00 |
| Cc1cc(C(=O)c2cn(Cc3cccc(Br)n3)c3ccccc3c2=O)ccc1Cl [Example 182] | CCXCKR2 receptor (Homo sapiens) | > 7.00 |
| Cc1ccc(C(=O)c2cn(Cc3cccc(C#N)n3)c3ccccc3c2=O)cc1C [Example 81] | CCXCKR2 receptor (Homo sapiens) | > 7.00 |
| Cc1ccccc1C(=O)c1cn(Cc2cccc(Br)n2)c2ccccc2c1=O [Example 121] | CCXCKR2 receptor (Homo sapiens) | > 7.00 |
| Cc1cccnc1C(=O)c1cn(Cc2cccc(Br)n2)c2ccccc2c1=O [Example 149] | CCXCKR2 receptor (Homo sapiens) | 6.30 to 7.00 |
| COc1ccc(C(=O)c2cn(Cc3cccc(Br)n3)c3ccccc3c2=O)cc1C [Example 98] | CCXCKR2 receptor (Homo sapiens) | > 7.00 |
| Cc1ccc(C(=O)c2cn(Cc3cccc(Br)c3)c3ccccc3c2=O)cn1 [Example 227] | CCXCKR2 receptor (Homo sapiens) | > 7.00 |
| COc1ccc(C(=O)c2cn(Cc3cccc(Br)n3)c3ccccc3c2=O)cc1C(=O)N(C)C [Example 181] | CCXCKR2 receptor (Homo sapiens) | 4.70 to 6.30 |
| COc1ccc(C(=O)c2cn(Cc3cccc(C)n3)c3ncccc3c2=O)cc1 [Example 161] | CCXCKR2 receptor (Homo sapiens) | > 7.00 |
| Cc1cccc(Cn2cc(C(=O)c3ccc(C)c(C)c3)c(=O)c3cnccc32)c1 [Example 47] | CCXCKR2 receptor (Homo sapiens) | 6.30 to 7.00 |
| Cc1ccc(C(=O)c2cn(Cc3ccccc3C(F)(F)F)c3ccccc3c2=O)cc1C [Example 36] | CCXCKR2 receptor (Homo sapiens) | 4.70 to 6.30 |
| Nc1cccc(Cn2cc(C(=O)c3ccc4c(c3)OCCO4)c(=O)c3ccccc32)n1 [Example 230] | CCXCKR2 receptor (Homo sapiens) | 6.30 to 7.00 |
| CCc1ccc(C(=O)c2cn(Cc3cccc(C)n3)c3ccccc3c2=O)cn1 [Example 212] | CCXCKR2 receptor (Homo sapiens) | > 7.00 |
| COc1ccc(C(=O)c2cn(Cc3cccc(C)n3)c3ncccc3c2=O)cc1F [Example 163] | CCXCKR2 receptor (Homo sapiens) | > 7.00 |
| Cc1cccc(Cn2cc(C(=O)c3ccc(C)c(C)c3)c(=O)c3ncccc32)n1 [Example 134] | CCXCKR2 receptor (Homo sapiens) | > 7.00 |
| CCc1ccc(C(=O)c2cn(Cc3cccc(Br)n3)c3ccccc3c2=O)cc1 [Example 115] | CCXCKR2 receptor (Homo sapiens) | > 7.00 |
